# ASSAY SYSTEM: T1, calcitonin receptor (hCTR) (human, UniProt P30988 25-474)
# T1 sequence (looked up): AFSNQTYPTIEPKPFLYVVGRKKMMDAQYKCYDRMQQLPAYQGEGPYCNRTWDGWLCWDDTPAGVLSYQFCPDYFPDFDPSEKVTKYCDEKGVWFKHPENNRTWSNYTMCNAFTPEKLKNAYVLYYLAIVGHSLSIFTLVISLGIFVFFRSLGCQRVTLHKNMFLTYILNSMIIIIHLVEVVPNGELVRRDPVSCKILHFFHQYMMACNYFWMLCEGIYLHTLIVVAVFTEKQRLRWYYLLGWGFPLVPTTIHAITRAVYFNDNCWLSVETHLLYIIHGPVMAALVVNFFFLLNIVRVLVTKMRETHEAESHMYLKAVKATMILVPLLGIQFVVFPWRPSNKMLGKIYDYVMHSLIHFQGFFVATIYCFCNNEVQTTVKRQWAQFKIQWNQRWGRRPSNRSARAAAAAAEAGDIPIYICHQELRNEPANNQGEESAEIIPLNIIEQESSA
# ASSAY TEXT: cell-based or functional assay
Primed or numbered codes have the meaning given here. * marks the point of attachment. C18 diacid = O=C(O)CCCCCCCCCCCCCCCCC(=O)*; Inp′ = not defined here; AEEA = NCCOCCOCC(=O)O
PROPERTY NAME: hCTR EC50, CRE-luciferase reporter cells (nM)

>  <BINDER>
{C18 diacid-Inp′-AEEA-AEEA}-ASQLSTAVLGRLSDELHRLQDYPRTDVGSGSP-NH2 [M30]

>  <UNIT TAG>
nM

>  <EXPERIMENTAL RESULT>
0.101

$$$$

A. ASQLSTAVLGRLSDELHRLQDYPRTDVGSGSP (not fully specified; N terminus: C20 diacid + Inp+2 AEEAs) [M29]
B. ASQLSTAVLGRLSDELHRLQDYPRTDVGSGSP (N terminus: C18 diacid + Trx+2 AEEAs) [M28]
C. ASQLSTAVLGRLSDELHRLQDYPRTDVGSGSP (not fully specified; N terminus: C20 diacid + Trx+2 AEEAs) [M27]
Prompt line: List by increasing hCTR EC50, CRE-luciferase reporter cells. Return the labels ranked in the requested order, please.
Response line: B, A, C
